Entry source: patent US20250177533A1

Test system: Human ovarian cancer cell line SKOV3
Assay: Inherent cytotoxicity (dark toxicity) in SKOV3 cells (AlamarBlue viability)
Conditions: SKOV3, 24 h incubation, no light activation
parameter.measured: Dark toxicity μM (IC10) (µM)
The answer is to be given in µM; state only the numeric part.

Which Dark toxicity μM (IC10) reading was recorded for the compound `CCC1=C(C)c2cc3[nH]c(cc4nc(c(C)c5cc(C)c(cc1n2)[nH]5)[C@@H](CCC(=O)N(C)CCOC)[C@@H]4C)c(C)c3COC(=O)NCCC[P+](c1ccccc1)(c1ccccc1)c1ccccc1` ?
0.470

Follow-up entry: `CCOC(=O)CC[C@@H]1c2nc(cc3[nH]c(cc4nc(cc5[nH]c(cc5C)c2C)C(CC)=C4C)c(COC(=O)NCCC[P+](c2ccccc2)(c2ccccc2)c2ccccc2)c3C)[C@H]1C`
2.240

How about C=Cc1c(C)c2cc3nc(c(CC(=O)N[C@@H](CC(=O)O)C(=O)O)c4[nH]c(cc5nc(cc1[nH]2)C(C)=C5CC)c(C)c4C(=O)O)[C@@H](CCC(=O)O)[C@@H]3C [Talaporfin sodium, reference compound] ?
11.10
